Experiment: chemical genetic growth profiling, strain panel (AID 1159580);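 note: tested at 20 µM; growth read once vehicle control cultures reached saturation at 30 °C; 1 = growth at the plate median or of vehicle wells; lower values mean less growth of the strain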
Details: S. cerevisiae deletion strains, growth OD, locus YIR030C, strain dcg1, hits give low values
About 2,000 (36%) of roughly 5,500 compounds were called active. Roughly 18% stayed inconclusive and do not appear here. Some of the results follow.
observable: normalized growth

1. CC(C)=CCC/C(C)=C/CO    0.993
2. Cc1c(NC(C)C)c(=O)n(-c2ccccc2)n1C    0.986
3. COP(=O)(NC(C)=O)SC (configuration not stated)    1
4. COc1ccccc1OCC(O)COC(N)=O (configuration not stated)    0.985
5. O=C1C(=O)c2ccccc2C(O)=C1C1CCC(c2ccc(Cl)cc2)CC1 (configuration not stated)    0.997
6. O=C(O)CC[N+](=O)[O-]    0.986
7. CCCCCC/C=C\CCCCCCCc1cccc(O)c1C(=O)O    0.995

====

Experiment: chemical genetic growth profiling, strain panel (AID 1159580);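 note: tested at 20 µM; growth read once vehicle control cultures reached saturation at 30 °C; 1 = growth at the plate median or of vehicle wells; lower values mean less growth of the strain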
Settings: S. cerevisiae deletion strains, growth OD, locus YLR058C, strain SHM2 (second series)
Among all 5,500 compounds or so, about 2,000 (36%) were called active. Not shown: some 18% with an inconclusive outcome. No stated cut-off is given here; in the data, active means normalized growth mostly below about 0.91 (no sharp cut-off); inconclusive means no clear call, values can overlap the other calls; inactive means mostly above about 0.92. This is one part of the list.
Outcomes: active, inactive

1) Cc1cc(S(=O)(=O)NCCNc2nccc(C(F)(F)F)n2)c(C)cc1Cl    inactive
2) Cc1cc(S(=O)(=O)NC(Cc2ccc([N+](=O)[O-])cc2)C(=O)O)c(Cl)cc1Cl (configuration not stated)    inactive
3) Cc1ccc(S(=O)(=O)N2CCC(C(c3ccccc3)c3ccccc3)CC2)cc1    inactive
4) CCOC(=O)CCC(C#N)(c1ccc(Cl)cc1)N1CCOCC1 (configuration not stated)    inactive
5) O=[N+]([O-])c1ccc(NCCCCCO)nc1    inactive
6) CCOC(=O)c1ccc(Oc2ncc(C(F)(F)F)cc2Cl)cc1    inactive
7) C/C(=N/O)c1ccc2c(c1)C(C)(C)CCC2(C)C    inactive
8) Cc1cc2c(cc1C)CSC(C)(c1ccc(F)cc1)SC2    inactive
9) CCCc1ccc(/C(C)=N\O)cc1    active
10) O=C(NNC(=S)NC1CC2C=CC1C2)c1cccnc1 (configuration not stated)    inactive
11) CCOC(=O)c1ccc(N2CC3CCCCN3C2c2ccc(Cl)c(Cl)c2)cc1 (configuration not stated)    inactive
12) COc1cccc(C2SCc3cc(C)c(C)cc3CS2)c1O    inactive

====

Assay: chemical genetic growth profiling, strain panel (AID 1159580);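 note: tested at 20 µM; growth read once vehicle control cultures reached saturation at 30 °C; 1 = growth at the plate median or of vehicle wells; lower values mean less growth of the strain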
Details: S. cerevisiae deletion strains, growth OD, locus YJR066W, strain TOR1 (second series), hits give low values
Screen size: about 5,500 compounds; about 2,000 (36%) were called active. Inconclusive results (about 18%) are left out. This is one part of the list.
observable: normalized growth

1. O=C(Nc1ccc(F)cc1)c1cc(Br)ccc1O    0.904
2. COC(=O)c1cc(I)c(OC(C)=O)c(I)c1    0.943
3. Cn1ncc(-c2nc(-c3ccc(Cl)cc3)cs2)c1N    0.8
4. NNC(=O)c1oc2nc(-c3ccccc3)cc(-c3ccccc3)c2c1N    0.887
5. O=C(/C=C/c1ccc(Cl)cc1)Nc1cccc(Cl)c1    0.877
6. O=C(Nc1cc(Cl)cc(Cl)c1)c1cc(Br)ccc1O    0.774
7. COC(=S)Nc1cc(Cl)cc(Cl)c1    0.653
8. O=C1C(NCc2ccccc2)=C(NCc2ccccc2)C(=O)c2ccccc21    0.775
9. O=S(=O)(Nc1cc(C(F)(F)F)cc(C(F)(F)F)c1)c1ccc(Cl)s1    0.856
10. S=C(NCCc1csc2ccccc12)Nc1ccc(Cl)cc1    0.759
11. O=C(Nc1cc(Cl)cc(Cl)c1)c1cc(Cl)ccc1O    0.668
12. O=C(Nc1ccc(F)cc1F)c1cc(Cl)ccc1O    0.952
